src = paper PMC8781472

# test-method-notes: In vivo pharmacokinetic experiments in rats
# Parameters: species or system Sprague−Dawley rats
# condition-details: male, Sprague-Dawley, rat; SD rats, single oral dose equivalent to 5 mg/kg PAL, plasma PAL
measure: AUC(0-t) (ng·h/mL)
Answers are plain numbers, in ng·h/mL.

Enquiry: Any idea what its AUC(0-t) is? The compound is `CC(=O)c1c(C)c2cnc(Nc3ccc(N4CCNCC4)cn3)nc2n(C2CCCC2)c1=O`
Return: 2620

----------
# test-method-notes: In vivo pharmacokinetic experiments in rats
# Parameters: species or system Sprague−Dawley rats
# condition-details: male, Sprague-Dawley, rat; SD rats, single oral dose equivalent to 5 mg/kg PAL, plasma PAL
measure: Tmax (h)
Answers are plain numbers, in h.

Enquiry: Need Tmax of `CC(=O)c1c(C)c2cnc(Nc3ccc(N4CCNCC4)cn3)nc2n(C2CCCC2)c1=O` , thanks.
Return: 4
